# Tested on: TT cells
# METHOD DESCRIPTION: cells
# MEASUREMENT CONDITIONS: Homo sapiens, 72 h, read-out: IC50 inhibition of proliferation
MEASURED QUANTITY: IC50 (nM)
Please state the figure in nM; there is no need to write the unit.

## Input Supply measured IC50 of COc1cc2nccc(Oc3ccc(NC(=O)C4(C(=O)Nc5ccc(F)cc5)CC4)cc3)c2cc1OC in your reply.
## Output 94
